# experimentalTarget: MLKL (Homo sapiens, UniProt Q8NB16)
# Sequence (Q8NB16 whole entry): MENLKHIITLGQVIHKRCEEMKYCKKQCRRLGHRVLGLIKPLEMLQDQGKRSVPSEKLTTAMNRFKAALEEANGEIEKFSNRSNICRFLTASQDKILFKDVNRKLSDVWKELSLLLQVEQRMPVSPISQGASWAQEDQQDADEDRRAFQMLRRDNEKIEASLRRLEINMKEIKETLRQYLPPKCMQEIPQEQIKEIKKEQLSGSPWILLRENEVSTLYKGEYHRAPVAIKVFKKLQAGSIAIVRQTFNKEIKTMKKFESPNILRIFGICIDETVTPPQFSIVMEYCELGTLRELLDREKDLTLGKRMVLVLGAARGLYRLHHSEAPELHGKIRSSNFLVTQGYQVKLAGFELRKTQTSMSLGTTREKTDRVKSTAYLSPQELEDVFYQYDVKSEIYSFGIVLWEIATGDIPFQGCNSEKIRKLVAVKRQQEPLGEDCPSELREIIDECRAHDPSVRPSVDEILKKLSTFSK
# testDetails: MLKL degradation assay in HepG2 cell line (western blot)
# Type: cell-based
# Set-up: endogenous in cells; host or cells: HepG2 or HaCaT
# reportedConditions: compound 1 μM; cell line not given
quantity: Degradation assay (Degradation %) 1 μM

compound: Nc1ncc(-c2cnn(C3CCN(CC4CCN(C(=O)COc5ccc6nnn(C7CCC(=O)NC7=O)c(=O)c6c5)CC4)CC3)c2)nc1C(=O)O[C@@H](C(=O)Nc1ccc(F)cc1)c1ccccc1 (stereo partly drawn) [TDH-169]
unitTag: %
readoutNumber: 71.77

compound: COc1ccc(C(=O)N2CCC(OCCN3CCC(n4cc(-c5cnc(N)c(C(=O)O[C@@H](C(=O)Nc6ccc(F)cc6)c6ccccc6)n5)cn4)CC3)CC2)cc1N1CCC(=O)NC1=O [TDH-448]
unitTag: %
readoutNumber: 48.26

compound: Nc1ncc(-c2cnn(C3CCN(C(=O)C4CCN(C(=O)C5CCN(c6ccc7c(c6)C(=O)N(C6CCC(=O)NC6=O)C7=O)CC5)CC4)CC3)c2)nc1C(=O)OC(C(=O)Nc1ccc(F)cc1)c1ccccc1 (stereo not drawn) [TDH-274]
unitTag: %
readoutNumber: 56.81
